test: Solubility in PBS; type: physicochemical
Assay Endpoint: Solubility

Please review the entries below; each comes with its answer.
- Compound: "CC(=O)N1CCC[C@]12CC=CCCCC1(CCCC=CCCCCCC[C@@](C)(C(=O)N[C@@H](Cc3ccccc3)C(=O)N[C@@H](Cc3csc4ccccc34)C(=O)N[C@@H](CCC(N)=O)C(N)=O)NC(=O)[C@H](CC(N)=O)NC(=O)[C@H](Cc3ccccc3)NC(=O)[C@H](C)NC(=O)[C@H](C)NC(=O)[C@H](CN(CC(=O)O)CC(F)(F)F)NC(=O)[C@H](CC(=O)O)NC1=O)NC(=O)[C@H](CC(C)(C)C)NC(=O)[C@H](CC(=O)O)NC2=O (stereo partly drawn)"
  Solubility: "50 µM"
- Compound: "CCN(CC(=O)O)C[C@@H]1NC(=O)[C@H](CC(=O)O)NC(=O)C2(CCCC=CCCCCCC[C@@](C)(C(=O)N[C@@H](Cc3ccccc3)C(=O)N[C@@H](Cc3c[nH]c4ccccc34)C(=O)N[C@@H](CCC(N)=O)C(N)=O)NC(=O)[C@H](C(C)C)NC(=O)[C@H](Cc3ccccc3)NC(=O)[C@H](C)NC(=O)[C@H](C)NC1=O)CCCC=CC[C@]1(CCCN1C(C)=O)C(=O)N[C@@H](CC(=O)O)C(=O)N[C@@H](C)C(=O)N2 (stereo partly drawn) [I-173]"
  Solubility: "26 µM"

Next compound, Solubility to be filled in.
Req: Which measured Solubility value corresponds to CC(=O)N1CCC[C@]12CC=CCCCC1(CCCC=CCCCOC(=O)N3CC[C@@](C(=O)N[C@@H](Cc4ccc(C#N)cc4)C(=O)N[C@@H](Cc4csc5ccccc45)C(=O)N[C@@H](CCC(N)=O)C(N)=O)(C3)NC(=O)[C@H](CC(C)C)NC(=O)[C@H](Cc3ccccc3)NC(=O)[C@H](C)NC(=O)[C@H](C)NC(=O)[C@H](CC(=O)O)NC(=O)[C@H](CC(=O)O)NC1=O)NC(=O)[C@H](CC(C)(C)C)NC(=O)[C@H](CC(=O)O)NC2=O (stereo partly drawn) ?
Resp: 50 µM

---

Parameter Solubility: see the listing below.
experiment: Solubility in PBS; assay type: physicochemical
Reply with just the number (in µM).

Please review the entries below; each comes with its answer.
- Compound: "CC[C@H](C)[C@@H]1NC(=O)[C@H](CC(=O)O)NC(=O)[C@]2(CC=CCCCC3(CCCC=CCCCCCC[C@@](C)(C(=O)N[C@@H](Cc4ccccc4)C(=O)N[C@@H](Cc4csc5ccccc45)C(=O)N[C@H](C(N)=O)C(C)C)NC(=O)[C@H](CCC(N)=O)NC(=O)[C@H](Cc4ccccc4)NC(=O)[C@H](C)NC(=O)[C@H](C)NC(=O)[C@H](CCC(=O)O)NC(=O)[C@H](CC(=O)O)NC3=O)NC1=O)CCCN2C(C)=O (stereo partly shown) [I-646]"
  Solubility [µM]: 41
- Compound: "CC[C@H](C)[C@@H]1NC(=O)[C@H](CC(=O)O)NC(=O)[C@]2(CC=CCCCC3(CCCC=CCCCCCC[C@@](C)(C(=O)N[C@@H](Cc4ccccc4)C(=O)N[C@@H](Cc4csc5ccccc45)C(=O)N[C@H](C(N)=O)[C@@H](C)O)NC(=O)[C@H](CCC(N)=O)NC(=O)[C@H](Cc4ccccc4)NC(=O)[C@H](C)NC(=O)[C@H](C)NC(=O)[C@H](CCC(=O)O)NC(=O)[C@H](CC(=O)O)NC3=O)NC1=O)CCCN2C(C)=O (stereo partly shown) [I-642]"
  Solubility [µM]: 48
- Compound: "CC[C@H](C)[C@@H]1NC(=O)[C@H](CC(=O)O)NC(=O)[C@]2(CC=CCCCC3(CCCC=CCCCCCC[C@@](C)(C(=O)N[C@@H](Cc4ccccc4C(N)=O)C(=O)N[C@@H](Cc4csc5ccccc45)C(=O)N[C@@H](Cc4c[nH]cn4)C(N)=O)NC(=O)[C@H](CC(N)=O)NC(=O)[C@H](Cc4ccccc4)NC(=O)[C@H](C)NC(=O)[C@H](C)NC(=O)[C@H](CCC(=O)O)NC(=O)[C@H](CC(=O)O)NC3=O)NC1=O)CCCN2C(C)=O (stereo partly shown)"
  Solubility [µM]: 50
- Compound: "CC(=O)N1CCC[C@]12CC=CCCCC1(CCCC=CCCCOC(=O)N3CC[C@@](C(=O)N[C@@H](Cc4ccccc4Cl)C(=O)N[C@@H](Cc4csc5ccccc45)C(=O)N[C@@H](CO)C(N)=O)(C3)NC(=O)[C@H](CC(N)=O)NC(=O)[C@H](Cc3ccccc3)NC(=O)[C@H](C)NC(=O)[C@H](C)NC(=O)[C@H](CC(=O)O)NC(=O)[C@H](CC(=O)O)NC1=O)NC(=O)[C@H](Cc1ccccc1)NC(=O)[C@H](CC(=O)O)NC2=O (stereo partly shown)"
  Solubility [µM]: 10
- Compound: "CC(=O)N1CCC[C@]12CC=CCCCC1(CCCC=CCCCCCC[C@@](C)(C(=O)N[C@@H](Cc3ccsc3)C(=O)N[C@@H](Cc3csc4ccccc34)C(=O)N[C@@H](CCC(N)=O)C(N)=O)NC(=O)[C@H](CC(N)=O)NC(=O)[C@H](Cc3ccccc3)NC(=O)[C@H](C)NC(=O)[C@H](C)NC(=O)[C@H](CC(=O)O)NC(=O)[C@H](CC(=O)O)NC1=O)NC(=O)[C@H](CC(C)(C)C)NC(=O)[C@H](CC(=O)O)NC2=O (stereo partly shown) [I-678]"
  Solubility [µM]: 49
- Compound: "CO[C@H](C)[C@@H]1NC(=O)[C@H](CC(=O)O)NC(=O)[C@]2(CC=CCCCC3(CCCC=CCCCCCC[C@@](C)(C(=O)N[C@@H](Cc4ccccc4)C(=O)N[C@@H](Cc4csc5ccccc45)C(=O)N[C@@H](CCC(N)=O)C(N)=O)NC(=O)[C@H](CCC(N)=O)NC(=O)[C@H](Cc4ccccc4)NC(=O)[C@H](C)NC(=O)[C@H](C)NC(=O)[C@H](CCC(=O)O)NC(=O)[C@H](CC(=O)O)NC3=O)NC1=O)CCCN2C(C)=O (stereo partly shown) [I-542]"
  Solubility [µM]: 39
- Compound: "CC(=O)N1CCC[C@]12CC=CCCCC1(CCCC=CCCCOC(=O)N3CC[C@@](C(=O)N[C@@H](Cc4ccsc4)C(=O)N[C@@H](Cc4csc5ccccc45)C(=O)N[C@@H](CCC(N)=O)C(N)=O)(C3)NC(=O)[C@H](CCC(N)=O)NC(=O)[C@H](Cc3ccccc3)NC(=O)[C@H](C)NC(=O)[C@H](C)NC(=O)[C@H](CC(=O)O)NC(=O)[C@H](CC(=O)O)NC1=O)NC(=O)[C@H](CC(C)(C)C)NC(=O)[C@H](CC(=O)O)NC2=O (stereo partly shown)"
  Solubility [µM]: 45
- Compound: "CC(=O)N1CCC[C@]12CC=CCCCC1(CCCC=CCCCCCC[C@@](C)(C(=O)N[C@@H](Cc3ccccc3)C(=O)N[C@@H](Cc3c[nH]c4ccccc34)C(=O)N[C@@H](CCC(N)=O)C(N)=O)NC(=O)[C@H](C(C)C)NC(=O)[C@H](Cc3ccccc3)NC(=O)[C@H](C)NC(=O)[C@H](C)NC(=O)[C@H](CC(=O)O)NC(=O)[C@H](C)NC1=O)NC(=O)[C@H](C)NC(=O)[C@H](CC(=O)O)NC2=O (stereo partly shown) [I-350]"
  Solubility [µM]: 48

Req: Which measured Solubility value corresponds to CC(=O)N1CCC[C@]12CC=CCCCC1(CCCC=CCCCCCC[C@@](C)(C(=O)N[C@@H](Cc3ccccc3)C(=O)N[C@@H](Cc3csc4ccccc34)C(=O)N[C@@H](CCC(N)=O)C(N)=O)NC(=O)[C@H](C)NC(=O)[C@H](Cc3cccc(C(F)(F)F)c3)NC(=O)[C@H](C)NC(=O)[C@H](C)NC(=O)[C@H](CC(=O)O)NC(=O)[C@H](CC(=O)O)NC1=O)NC(=O)[C@H](C)NC(=O)[C@H](CC(=O)O)NC2=O (stereo partly shown) [I-376] ?
Resp: 48

Req: Record: CC(=O)N1CCC[C@]12CC=CCCCC1(CCCC=CCCCOC(=O)N3CC[C@@](C(=O)N[C@@H](Cc4ccccc4)C(=O)N[C@@H](Cc4csc5ccccc45)C(=O)N[C@H](C(N)=O)[C@@H](C)O)(C3)NC(=O)[C@H](CC(C)C)NC(=O)[C@H](Cc3ccccc3)NC(=O)[C@H](C)NC(=O)[C@H](CCCCNC(C)C)NC(=O)[C@H]([C@@H](C)O)NC(=O)[C@H](CC(N)=O)NC1=O)NC(=O)[C@H](C)NC(=O)[C@H](CC(=O)O)NC2=O (stereo partly shown)
Resp: 10

---

Parameter IC50: see the listing below.
Molecular target: beta-catenin/TCF4 engagement (Homo sapiens, UniProt P35222)
Construct: expressed in transfected cells; host or cells: HEK293
Sequence (P35222 1-781): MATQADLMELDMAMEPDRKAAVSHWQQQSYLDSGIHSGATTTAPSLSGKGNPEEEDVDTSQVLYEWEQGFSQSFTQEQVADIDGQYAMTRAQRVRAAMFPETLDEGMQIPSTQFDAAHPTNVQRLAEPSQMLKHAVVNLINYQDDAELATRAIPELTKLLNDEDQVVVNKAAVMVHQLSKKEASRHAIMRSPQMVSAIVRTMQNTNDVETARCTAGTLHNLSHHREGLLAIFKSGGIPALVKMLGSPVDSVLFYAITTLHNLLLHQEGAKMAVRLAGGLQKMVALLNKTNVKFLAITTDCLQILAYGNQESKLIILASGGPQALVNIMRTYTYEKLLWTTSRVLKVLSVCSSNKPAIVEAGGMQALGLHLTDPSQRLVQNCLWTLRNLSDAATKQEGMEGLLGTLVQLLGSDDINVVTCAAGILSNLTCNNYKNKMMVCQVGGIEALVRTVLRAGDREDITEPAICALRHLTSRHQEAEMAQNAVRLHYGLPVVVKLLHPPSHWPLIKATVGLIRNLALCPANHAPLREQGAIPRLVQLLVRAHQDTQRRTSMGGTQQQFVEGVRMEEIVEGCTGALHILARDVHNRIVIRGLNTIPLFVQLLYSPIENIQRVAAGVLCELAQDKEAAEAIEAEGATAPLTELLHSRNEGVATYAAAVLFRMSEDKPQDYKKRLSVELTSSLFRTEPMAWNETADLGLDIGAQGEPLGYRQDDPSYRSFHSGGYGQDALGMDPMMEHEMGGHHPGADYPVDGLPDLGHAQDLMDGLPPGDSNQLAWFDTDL
Assay: Nano-BRET target engagement assay (B-cat-Halo & TCF4-Luc in HEK293 cells)
Format: cell-based
Conditions: absolute IC50; read-out: NanoBRET Abs IC50
Please give the number followed by its unit.

Please review the entries below; each comes with its answer.
- Compound: "CC(=O)N1CCC[C@]12CC=CCCCC1(CCCC=CCCCOC(=O)N3CC[C@@](C(=O)N[C@@H](Cc4ccccc4Cl)C(=O)N[C@@H](Cc4csc5ccccc45)C(=O)N[C@H](CO)[C@@H](C)O)(C3)NC(=O)[C@H]([C@@H](C)O)NC(=O)[C@H](Cc3ccccc3)NC(=O)[C@H](C)NC(=O)[C@H](C)NC(=O)[C@H](CN(CC(=O)O)CC(F)(F)F)NC(=O)[C@H](CC(=O)O)NC1=O)NC(=O)[C@H](CC(C)(C)C)NC(=O)[C@H](CC(=O)O)NC2=O (some centres unmarked) [I-1241]"
  IC50: "15.7 µM"
- Compound: "CC(=O)N1CCC[C@]12CCCCCCC1(CCCCCCCCOC(=O)N3CC[C@@](C(=O)N[C@@H](Cc4ccccc4C(F)(F)F)C(=O)N[C@@H](Cc4csc5ccccc45)C(=O)N[C@@H](CCC(N)=O)C(N)=O)(C3)NC(=O)[C@H](CC(C)C)NC(=O)[C@H](Cc3ccccc3)NC(=O)[C@H](C)NC(=O)[C@H](C)NC(=O)[C@H](CN(CC(=O)O)CC(F)(F)F)NC(=O)[C@H](CC(=O)O)NC1=O)NC(=O)[C@H](CC(C)(C)C)NC(=O)[C@H](CC(=O)O)NC2=O (some centres unmarked) [I-1714]"
  IC50: "28.6 µM"
- Compound: "CC(=O)N1CCC[C@]12CC=CCCCC1(CCCC=CCCCOC(=O)N3CC[C@@](C(=O)N[C@@H](Cc4ccccc4)C(=O)N[C@@H](Cc4csc5ccccc45)C(=O)N[C@@H](Cc4c[nH]cn4)C(N)=O)(C3)NC(=O)[C@H](CC(N)=O)NC(=O)[C@H](Cc3ccccc3)NC(=O)[C@H](C)NC(=O)[C@H](C)NC(=O)[C@H](CCC(=O)O)NC(=O)[C@H](CC(=O)O)NC1=O)NC(=O)[C@H](CC(C)(C)C)NC(=O)[C@H](CC(=O)O)NC2=O (some centres unmarked) [I-692]"
  IC50: "25.6 µM"
- Compound: "CCCC[C@@H]1NC(=O)[C@H](Cc2ccccc2)NC(=O)[C@H](C)NC(=O)C(C)(C)NC(=O)[C@H](Cc2cccc(C(=O)O)c2)NC(=O)[C@H](CC(=O)O)NC(=O)C2(CCCC=CCCCOC(=O)N3CC[C@@](C(=O)N[C@@H](Cc4ccsc4)C(=O)N[C@@H](Cc4csc5ccccc45)C(=O)N[C@@H](CCC(=O)N4CCN(C(C)=O)CC4)C(N)=O)(C3)NC1=O)CCCC=CC[C@]1(CCCN1C(C)=O)C(=O)N[C@@H](CC(=O)O)C(=O)N[C@@H](CC(C)(C)C)C(=O)N2 (some centres unmarked) [I-2556]"
  IC50: "7 µM"

Next compound, IC50 to be filled in.
Req: I'm curious: which IC50 was measured for CCCC[C@H](NC(=O)[C@H](CC(C)C)NC(=O)[C@H](CCC(N)=O)NC(=O)[C@H](Cc1csc2ccccc12)NC(=O)[C@H](Cc1ccccc1C(F)(F)F)NC(=O)[C@]12CCN(C1)C(=O)OCCCC=CCCCC1(CCCC=CC[C@]3(CCCN3C(C)=O)C(=O)N[C@@H](CC(=O)O)C(=O)N[C@@H](CC(C)(C)C)C(=O)N1)C(=O)N[C@@H](CC(=O)O)C(=O)N[C@@H](Cc1cccc(C(=O)O)c1)C(=O)N[C@@H](C)C(=O)N[C@@H](C)C(=O)N[C@@H](Cc1ccccc1)C(=O)N[C@@H](CC(C)C)C(=O)N2)C(N)=O (some centres unmarked) [I-2391] tested on beta-catenin/TCF4 engagement (Homo sapiens, UniProt P35222)?
Resp: 8.2 µM
